B1: Formin-binding protein 4, residues 200 to 261; numbered along this chain, Q8N3X1 (parent)
chain: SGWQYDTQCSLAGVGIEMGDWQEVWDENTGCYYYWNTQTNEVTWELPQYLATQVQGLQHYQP

# Variants of: B1
# protocolNotes: abundance fitness (aPCA) (normalised: wild type 0, dead -1); higher = more abundant; growth selection in yeast, the domain comes from the species named
# protocolConditions: Homo sapiens
measuredAttribute: abundance fitness
// response body must contain only the number

**Q:** Recorded abundance fitness of SGHQYDTQCSLAGVGIEMGDWQEVWDENTGCYYYWNTQTNEVTWELPQYLATQVQGLQHYQP [W3H] , please.
**A:** -0.296

**Q:** Another variant: SGWQYDTQCSLAGVGIEMGDWQEVWDENTGCYYYWNEQTNEVTWELPQYLATQVQGLQHYQP [T37E]
**A:** -0.297

***
**Q:** Recorded abundance fitness of SGWQYDTQCSLAGVGIEMGDWQEVWDENTGCIYYWNTQTNEVTWELPQYLATQVQGLQHYQP [Y32I] , please.
**A:** -0.3

**Q:** Another variant: SGWQYDTQCSLAGVGIEMGDWQEVSDENTGCYYYWNTQTNEVTWELPQYLATQVQGLQHYQP [W25S]
**A:** -0.294

**Q:** Another variant: SGWQYDTQCSLAGVGIEMGDWQEVWDENTGCYYYWNTQTNEVTWELPQYLATQVQGCQHYQP [L57C]
**A:** -0.305
